# target_of_assay: T1, TCE-38 (anti-CD3 scFv F240A; anti-TROP2 F108A)
# T1 construct: scFv on the Fab heavy chain
# procedure_text: competition ELISA, TCE on captured CD3
pIC50: −log10 of the molar value. Where no end group is shown, it is not given here.
measured_endpoint: pIC50

(a) YLCGPDGDETLACY (cysteine pairing not given here; also: biotinylated, site not given here, mask peptide for the CD3 scFv) [Peptide-70]
(b) VYCGPEFDESVGCA (cysteine pairing not given here; also: biotinylated, site not given here, mask peptide for the CD3 scFv) [Peptide-73]
Between a and b , whose measured pIC50 reads higher? Indicate your choice by writing its label.
a
